# target of assay: T1, human ADAMTS5 (human, UniProt Q9UNA0 262-622, limits assumed)
# T1 construct: Octet and ELISA used 'recombinant human ADAMTS5'; also called recombinant human ADAMTS5; ADAMTS5 (R&D Systems 2198-AD)
# T1 sequence: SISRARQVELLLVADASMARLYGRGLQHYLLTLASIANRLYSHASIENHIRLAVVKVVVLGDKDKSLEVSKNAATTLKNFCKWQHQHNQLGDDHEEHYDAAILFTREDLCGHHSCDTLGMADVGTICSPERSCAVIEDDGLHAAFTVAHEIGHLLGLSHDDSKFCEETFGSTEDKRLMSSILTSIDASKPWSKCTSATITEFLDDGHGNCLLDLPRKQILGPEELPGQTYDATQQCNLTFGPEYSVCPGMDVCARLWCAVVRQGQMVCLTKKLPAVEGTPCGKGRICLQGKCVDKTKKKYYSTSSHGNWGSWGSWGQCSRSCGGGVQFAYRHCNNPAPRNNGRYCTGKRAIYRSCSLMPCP
# test: Biacore, mAb from culture supernatant captured on anti-human IgG, ADAMTS5 (R&D 2198-AD) at 64 nM, 1:1 fit
Examples of binders with documented kon follow.
Numbers only here, please. The scale is M⁻¹ s⁻¹.

// known answers, use as guide
BPC1637 (antibody, human IgG1, kappa, V domains shown, Humanized, human gamma 1 / kappa; also called 7B4 H3L0) VH: EVQLVESGGGLVQPGGSLRLSCAASGFTSSDAWMDWVRQAPGKGLEWVAEIRNKANNHARHYAESVKGRFTISRDNAKNSLYLQMNSLRAEDTAVYYCTRTYYYGSSYGYCDVWGQGTLVTVSS VL: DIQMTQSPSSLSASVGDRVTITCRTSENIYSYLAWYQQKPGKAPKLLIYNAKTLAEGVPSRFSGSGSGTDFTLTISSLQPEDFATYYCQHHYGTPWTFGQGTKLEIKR | 1.12e+06
BPC1635 (antibody, human IgG1, kappa, V domains shown, Humanized, human gamma 1 / kappa; also called 7B4 H1L0) VH: EVQLVESGGGLVQPGGSLRLSCAASGFTFSDAWMDWVRQAPGKGLEWVAEIRNKANNHARHYAESVKGRFTISRDNAKNSLYLQMNSLRAEDTAVYYCTRTYYYGSSYGYCDVWGQGTLVTVSS VL: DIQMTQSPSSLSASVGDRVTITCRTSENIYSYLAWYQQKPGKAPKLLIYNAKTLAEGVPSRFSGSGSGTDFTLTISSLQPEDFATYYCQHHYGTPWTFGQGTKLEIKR | 704000

Give kon for the following binder: BPC1651 (antibody, human IgG1, kappa, V domains shown, Humanized, human gamma 1 / kappa; also called 7B4 H3L2) VH: EVQLVESGGGLVQPGGSLRLSCAASGFTSSDAWMDWVRQAPGKGLEWVAEIRNKANNHARHYAESVKGRFTISRDNAKNSLYLQMNSLRAEDTAVYYCTRTYYYGSSYGYCDVWGQGTLVTVSS VL: DIQMTQSPSSLSASVGDRVTITCRTSENIYSYLAWYQQKPGKAPQLLVYNAKTLAEGVPSRFSGSGSGTDFTLTISSLQPEDFATYYCQHHYGTPWTFGQGTKLEIKR 2.65e+06

Give kon for the following binder: BPC1648 (antibody, human IgG1, kappa, V domains shown, Humanized, human gamma 1 / kappa; also called 7B4 H0L2) VH: EVQLVESGGGLVQPGGSLRLSCAASGFTFSDAWMDWVRQAPGKGLEWVAEIRNKANNHARHYAESVKGRFTISRDNAKNSLYLQMNSLRAEDTAVYYCARTYYYGSSYGYCDVWGQGTLVTVSS VL: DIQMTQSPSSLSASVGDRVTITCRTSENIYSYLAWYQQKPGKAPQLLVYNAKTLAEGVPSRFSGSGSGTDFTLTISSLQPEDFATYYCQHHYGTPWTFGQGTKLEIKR 788000

Give kon for the following binder: BPC1650 (antibody, human IgG1, kappa, V domains shown, Humanized, human gamma 1 / kappa; also called 7B4 H2L2) VH: EVQLVESGGGLVQPGGSLRLSCAASGFTSSDAWMDWVRQAPGKGLEWVAEIRNKANNHARHYAESVKGRFTISRDNAKNSLYLQMNSLRAEDTAVYYCARTYYYGSSYGYCDVWGQGTLVTVSS VL: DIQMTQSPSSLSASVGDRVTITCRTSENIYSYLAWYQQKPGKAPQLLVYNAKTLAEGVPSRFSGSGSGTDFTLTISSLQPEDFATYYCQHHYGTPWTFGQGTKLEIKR 3.14e+06
